Target: T1, IL-18 binding protein (IL-18BP) (UniProt O95998 31-194)
T1 sequence (looked up): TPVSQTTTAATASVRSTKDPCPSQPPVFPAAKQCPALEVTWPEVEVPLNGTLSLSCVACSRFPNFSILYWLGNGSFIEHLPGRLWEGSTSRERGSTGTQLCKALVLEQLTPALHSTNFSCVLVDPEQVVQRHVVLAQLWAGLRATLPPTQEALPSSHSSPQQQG
Test: cell-based or functional assay
measured.quantity: Ratio (-BP/+BP), DF-5000006
Keep it simple and answer with nothing but the number.

{"binder": "IL-18 variant G3H, E6Q, K53N, D54S, S55P, T63A, N91I, R104S (ligand) YFHKLQSKLSVIRNLNDQVLFIDQGNRPLFEDMTDSDMRDNAPRTIFIISMYNSPQPRGMAVAISVKSEKISTLSSENKIISFKEMNPPDIIKDTKSDIIFFQSSVPGHDNKMQFESSSYEGYFLASEKERDLFKLILKKEDELGDRSIMFTVQNED", "value.observed": 0.78}

**Query** Recorded Ratio (-BP/+BP), DF-5000006 of IL-18 variant G3P, E6D, K53T, D54N, T63A, N91T, R104P (ligand) YFPKLDSKLSVIRNLNDQVLFIDQGNRPLFEDMTDSDMRDNAPRTIFIISMYTNSQPRGMAVAISVKSEKISTLSSENKIISFKEMNPPDTIKDTKSDIIFFQPSVPGHDNKMQFESSSYEGYFLASEKERDLFKLILKKEDELGDRSIMFTVQNED , please.
**Result** 0.92

**Query** Recorded Ratio (-BP/+BP), DF-5000006 of IL-18 variant G3L, E6S, D54T, T63S, N91Y, R104Q (ligand) YFLKLSSKLSVIRNLNDQVLFIDQGNRPLFEDMTDSDMRDNAPRTIFIISMYKTSQPRGMAVSISVKSEKISTLSSENKIISFKEMNPPDYIKDTKSDIIFFQQSVPGHDNKMQFESSSYEGYFLASEKERDLFKLILKKEDELGDRSIMFTVQNED , please.
**Result** 1.02

**Query** Recorded Ratio (-BP/+BP), DF-5000006 of IL-18 variant G3Q, E6D, K53S, D54I, S55E, T63S, N91S, R104Q (ligand) YFQKLDSKLSVIRNLNDQVLFIDQGNRPLFEDMTDSDMRDNAPRTIFIISMYSIEQPRGMAVSISVKSEKISTLSSENKIISFKEMNPPDSIKDTKSDIIFFQQSVPGHDNKMQFESSSYEGYFLASEKERDLFKLILKKEDELGDRSIMFTVQNED , please.
**Result** 0.8

**Query** Recorded Ratio (-BP/+BP), DF-5000006 of IL-18 variant G3P, E6K, K53N, D54S, S55P, T63S, N91S, R104Q (ligand) YFPKLKSKLSVIRNLNDQVLFIDQGNRPLFEDMTDSDMRDNAPRTIFIISMYNSPQPRGMAVSISVKSEKISTLSSENKIISFKEMNPPDSIKDTKSDIIFFQQSVPGHDNKMQFESSSYEGYFLASEKERDLFKLILKKEDELGDRSIMFTVQNED , please.
**Result** 1.03

**Query** Recorded Ratio (-BP/+BP), DF-5000006 of IL-18 variant G3L, E6Q, T63S, N91L, R104P (ligand) YFLKLQSKLSVIRNLNDQVLFIDQGNRPLFEDMTDSDMRDNAPRTIFIISMYKDSQPRGMAVSISVKSEKISTLSSENKIISFKEMNPPDLIKDTKSDIIFFQPSVPGHDNKMQFESSSYEGYFLASEKERDLFKLILKKEDELGDRSIMFTVQNED , please.
**Result** 1.11

**Query** Recorded Ratio (-BP/+BP), DF-5000006 of IL-18 variant G3D, E6G, K53G, D54A, T63S, N91Y, R104Q (ligand) YFDKLGSKLSVIRNLNDQVLFIDQGNRPLFEDMTDSDMRDNAPRTIFIISMYGASQPRGMAVSISVKSEKISTLSSENKIISFKEMNPPDYIKDTKSDIIFFQQSVPGHDNKMQFESSSYEGYFLASEKERDLFKLILKKEDELGDRSIMFTVQNED , please.
**Result** 0.98

Numbers sourced from patent US20240182536A1.
